Attribution: patent US4395399A

Tested on: 8-day Krocker sarcoma (S-180)
Conditions: mice with sarcoma S-180
Where a SMILES comes first, the peptide text is derived from it. [ ]: non-standard residue; d: D form.
MEASURED_PARAMETER: Necrosis caused by constituent components of the glycopeptides

COMPOUND | TARGET | MEASUREMENT
CC(=O)N[C@H]1C(O)O[C@H](CO)[C@@H](O)[C@@H]1O[C@H](C)C(=O)O (stereo partly drawn) | 8-day Krocker sarcoma (S-180) | not caused
C[C@H](N)C(=O)N[C@H](CCC(=O)O)C(N)=O [X, Ala-D-Glu-NH2] (H-Ala-[dE]-NH2) | 8-day Krocker sarcoma (S-180) | not caused
CC(=O)N[C@H]1C(O[C@H]2[C@H](O[C@H](C)C(=O)O)[C@@H](NC(C)=O)C(O[C@H]3[C@H](O)[C@@H](NC(C)=O)C(O[C@H]4[C@H](O[C@H](C)C(=O)O)[C@@H](NC(C)=O)C(O)O[C@@H]4CO)O[C@@H]3CO)O[C@@H]2CO)O[C@H](CO)[C@@H](O)[C@@H]1O (stereo partly drawn) | 8-day Krocker sarcoma (S-180) | not caused
C[C@H](N)C(=O)N[C@H](CCC(=O)O)C(=O)O [XI, Ala-D-Glu] (H-Ala-[dE]-OH) | 8-day Krocker sarcoma (S-180) | not caused
CC(=O)N[C@H]1C(O[C@H]2[C@H](O[C@H](C)C(=O)O)[C@@H](NC(C)=O)C(O)O[C@@H]2CO)O[C@H](CO)[C@@H](O)[C@@H]1O (stereo partly drawn) | 8-day Krocker sarcoma (S-180) | not caused
CC(=O)N[C@H]1C(O)O[C@H](CO)[C@@H](O)[C@@H]1O (stereo partly drawn) | 8-day Krocker sarcoma (S-180) | not caused
